Target: Luciferin 4-monooxygenase (Photinus pyralis) (UniProt P08659)
Assay: Primary firefly luciferase (FLuc) qHTS assay for identification of artifact compounds. (AID 1845220); further: nearly all actives have a fitted effect of over 60% in size
Details: purified firefly luciferase, luminescence, 5 min; at 54.1 µM (top of the series) unless noted; series mostly up to 54.1 µM
Calls of active or inactive are those of the source. The call rests on the fitted dose curve; in most records, active means well fitted inhibition curve with a large enough effect; inconclusive means small, poorly fitted or top-dose-only effect; inactive means flat fitted curve, though single readings scatter. Where a SMILES comes first, the peptide text is derived from it. [ ]: non-standard residue; d: D form. The star is where a group is joined. Dolaproine = CO[C@@H]([C@@H]1CCCN1)[C@@H](C)C(=O)O; Dil = CC[C@H](C)[C@H](NC)[C@@H](CC(=O)O)OC; Doe = c1ccc(C[C@H](N*)c2nccs2)cc1; Aib = CC(C)(N)C(=O)O
EXPERIMENTAL ENDPOINT: outcome

Solved entries:
MOLECULE | REPORTED
C=C1[C@@H](O)[C@]2(O)OC[C@]34C2[C@]2(C)C(C[C@H]3OC(=O)[C@H](O)[C@@]14O)C(C)=CC(=O)[C@H]2O (some centres undefined) | inactive [at 25.7 µM]
C[C@H]1CN(Cc2ccc(CC(=O)N3CCC(Nc4cccc(F)c4)CC3)cc2)CCN1 | inactive
COc1cc2c(c(OC)c1OC)-c1ccc(SC)c(=O)cc1[C@@H](NC(C)=O)CC2 | inactive
CN1C(=O)CN=C(c2ccccc2Cl)c2cc(Cl)ccc21 | inactive

I need outcome for every entry listed below, if you could help.
1. COC1C(O)C(C)OC(OC2C(CO)O[C@@H](O[C@@H]3CC4CCC5C(CC[C@]6(C)[C@@H](C7=CC(=O)OC7)CC[C@]56O)[C@@]4(C)[C@H](OC(C)=O)C3)C(O)C2O)C1O (some centres undefined)
2. CC[C@H](C)[C@@H]([C@@H](CC(=O)N1CCC[C@H]1[C@H](OC)[C@@H](C)C(=O)N[C@@H](Cc1ccccc1)c1nccs1)OC)N(C)C(=O)[C@@H](NC(=O)C(C)(C)N)C(C)C (H-[Aib]V[Dil][Dolaproine]-Doe)
3. C/C=C(/C)C1C=CC2CC(C)CC(C)C2C1/C(O)=C1\C(=O)NC(CC(C)(O)C(=O)O)C1=O (centres undefined)
4. COc1ccc2c(c1)c(CCN(C)C)cn2S(=O)(=O)c1ccccc1
5. C[N@@+]1(CC2CC2)CC[C@]23c4c5ccc(O)c4O[C@H]2C(=O)CC[C@@]3(O)[C@H]1C5

RESULT:
1: inactive [at 25.7 µM]; 2: inactive; 3: inactive [at 25.7 µM]; 4: inactive; 5: inactive

###

Assay: qHTS for Inhibitors of the Functional Ribonucleoprotein Complex (vRNP) of Lassa (LASV) Arenavirus: Viability assay - alamar blue signal for LASV Primary Screen (AID 1347083); further: nearly all actives have a fitted effect of over 80% in size
Settings: cell viability, alamar blue fluorescence (LASV minigenome counter-screen); series mostly up to 57.5 µM
Results filed as inconclusive are left out. Calls of active or inactive are those of the source. The call rests on the fitted dose curve; tested in HEK293 reporter line.
I would appreciate it if you answered using one of these outcomes: 1.0 = active, 0.0 = inactive

Some solved entries appear below for comparison.
COMPOUND | CLASS
COC[C@H](NC(=O)c1cnc(C)s1)C(=O)N[C@@H](COC)C(=O)N[C@@H](Cc1ccccc1)C(=O)[C@@]1(C)CO1 | 1.0
CC1C(=O)OC2C1CCC1(C)CCC(=O)C(C)C21 (centres undefined) | 0.0
CC(C)=CCCC(C)CC=O (centres undefined) | 0.0

Proceed to the following item.
QUERY: Please let me know the test result on file for C[C@@H]1OC(=O)[C@H]2C[C@H]3CCCC[C@@H]3[C@@H](/C=C/[C@H]3CCC[C@H](C)N3C)[C@@H]12 .
RESULT: 0.0
